target: Proteasome subunit beta type-5 (Mus musculus); assay: Inhibition of 20S proteosome beta 5 in mouse A20 cells by ELISA
Sequence (O55234 whole entry): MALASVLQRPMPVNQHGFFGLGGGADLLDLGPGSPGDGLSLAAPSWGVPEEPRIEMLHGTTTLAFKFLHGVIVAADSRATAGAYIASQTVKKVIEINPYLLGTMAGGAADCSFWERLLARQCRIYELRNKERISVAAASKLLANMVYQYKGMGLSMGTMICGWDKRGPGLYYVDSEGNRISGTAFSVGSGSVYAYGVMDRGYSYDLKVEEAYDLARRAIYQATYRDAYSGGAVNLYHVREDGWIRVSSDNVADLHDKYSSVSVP
value-kind: IC50 (nM)
Report the figure in nM without appending any unit label.

Notebook: CC(C)C[C@H](NC(=O)CN1CCCCCC1)C(=O)N[C@@H](Cc1ccccc1)C(=O)N[C@@H](Cc1ccccc1)C(=O)[C@@]1(C)CO1 , IC50 read as 38

Notebook: COc1ccc(C[C@H](NC(=O)[C@@H](C)NC(=O)C2CCCCC2)C(=O)N[C@@H](Cc2ccccc2)C(=O)[C@@]2(C)CO2)cc1 , IC50 read as 118

Notebook: COc1ccc([C@@H](O)[C@H](NC(=O)[C@H](C)NC(=O)CN2CCOCC2)C(=O)N[C@@H](CC2=CCCC2)C(=O)[C@@]2(C)CO2)cc1 , IC50 read as 483

Notebook: COc1ccc(C[C@H](NC(=O)[C@@H](C)NC(=O)[C@H]2CC[C@H](O)CC2)C(=O)N[C@@H](CC2=CCCC2)C(=O)[C@@]2(C)CO2)cc1 , IC50 read as 2650

Notebook: CC1=C(C(=O)N[C@@H](C)C(=O)N[C@@H](Cc2c[nH]c3ccccc23)C(=O)N[C@@H](Cc2ccccc2)C(=O)[C@@]2(C)CO2)Cc2ccccc21 , IC50 read as 47

Notebook: COc1ccc(C[C@H](NC(=O)[C@@H](C)NC(=O)[C@H]2CC[C@H](O)CC2)C(=O)N[C@@H](CC2CCC2)C(=O)[C@@]2(C)CO2)cc1 , IC50 read as 6810
